Here the recorded TGI is given for each entry.
# Tested on: SK-MEL-28 melanoma
# Procedure Details: NCI tumour cell line growth inhibition, 48 h

Compound	TGI
N=c1oc2cc(O)ccc2cc1C(=O)NCc1ccccc1	> 100 µM
O=c1cc(NNc2ccccc2)[nH]c(=S)[nH]1	> 100 µM
CCCCCCCCCCCC(=O)OCC1OC(n2cc(F)c(=O)[nH]c2=O)C(NC(=O)OCc2ccccc2)C(OC(=O)CCCCCCCCCCC)C1O (stereo not drawn)	> 100 µM
CN(C)C(=O)OC(Cn1cncn1)c1ccc(Cl)cc1Cl (stereo not drawn)	> 100 µM
C/C(=N/NC(=S)Nc1ccc([N+](=O)[O-])cc1)c1cccc(/C(C)=N\NC(=S)Nc2ccc([N+](=O)[O-])cc2)n1	> 100 µM
CSc1ccc(C2OC(=O)c3ccccc32)c2ccccc12 (stereo not drawn)	> 100 µM
CC(CCC(=O)O)[C@H]1CCC2[C@@H]3CC[C@@H]4CC(O)CC[C@]4(C)C3CC[C@@]21C (stereo partly drawn)	> 100 µM
CC1OC(O[C@@H]2OC=C(C=O)[C@@]3(O)CC[C@H](C)[C@@H]23)C(O)C(O)C1O (stereo partly drawn)	> 100 µM
O=C1C=C2C(=NC34CCCCC3C(c3ccccc3)C3=C(c5ccccc5CC3)N24)c2ccccc21 (stereo not drawn)	> 10 µM
COC(=O)[C@@]1(C)CC[C@]2(C)CC[C@]3(C)C4=CC=C5C(=CC(=O)C(O)=C5C)[C@]4(C)[C@@H](O)C[C@@]3(C)[C@@H]2C1	19.7 µM
COc1ccc(-c2csc(N(C(=O)N3CCN(c4cc5c(cc4F)c(=O)c(C(=O)O)cn5C4CC4)CC3)c3ccccc3)n2)cc1	> 100 µM
CCCCCCCCCCC(C(=O)O)C1(C(=O)O)CCC(=O)O1 (stereo not drawn)	> 100 µM
NC(=O)c1cc2cc(Cl)cc(Cl)c2oc1=Nc1ccc(F)cc1	46.3 µM
COc1ccc(OC)c(/C=C2\SC(=S)NC2=O)c1	> 100 µM
O=[N+]([O-])C(C(Cl)=C(Cl)Cl)=C(N(Cc1ccccc1)Cc1ccccc1)N(Cc1ccccc1)Cc1ccccc1	> 100 µM
N#C/C(=C\c1ccc(O)c(O)c1)C(N)=S	> 100 µM
CC(=O)OCC1OC(OC2C(CSC3OC(COC(C)=O)C(OC(C)=O)C(OC(C)=O)C3OC(C)=O)OC(OC(C)=O)C(OC(C)=O)C2OC(C)=O)C(OC(C)=O)C(OC(C)=O)C1OC(C)=O (stereo not drawn)	> 100 µM
CCOC(=O)c1c2c(n3ccccc13)C(=O)c1ccccc1C2=O	> 100 µM

---

# Tested on: CAKI-1 renal
# Procedure Details: NCI tumour cell line growth inhibition, 48 h
# GI50 listing for each entry below
Parameter Measured: GI50

Compound	Measured On	Parameter Measured	Meas Value
COc1ccc2c(c1)cn1c3ccc(O)cc3nc(N)c21	CAKI-1 renal	GI50	246 nM
COc1ccc2sc3c(NCCCN(C)C)nc4ccccc4c3c(=O)c2c1	CAKI-1 renal	GI50	1600 nM
C1C[OH+]CC[OH+]CCNCC[OH+]CC[OH+]CCN1.N.[Cl-].[Pt+4]	CAKI-1 renal	GI50	7500 nM
COc1cc(C2CC(c3ccc4c(c3)OCO4)=NN2C=O)cc(OC)c1OC (stereo not drawn)	CAKI-1 renal	GI50	1250 nM
OC(c1cc(-c2ccccc2)nc2ccc(Cl)cc12)C1CCCCN1 (stereo not drawn)	CAKI-1 renal	GI50	2100 nM
CC[C@@H](C(=O)O)C1CC[C@H](C)C([C@@H](C)[C@H](O)[C@H](C)C(=O)[C@H](CC)C2O[C@]3(C=C[C@@H](O)[C@]4(CC[C@@](C)(C5CC[C@](O)(CC)[C@H](C)O5)O4)O3)[C@H](C)C[C@@H]2C)O1 (stereo partly drawn)	CAKI-1 renal	GI50	190 nM
CCCC(C)c1cc(Cc2cc(Cl)cc(Cl)c2O)c(O)c(Cc2cc(Cl)cc(Cl)c2O)c1 (stereo not drawn)	CAKI-1 renal	GI50	1230 nM
NCCn1c(=O)[nH]c(=O)[nH]c1=S	CAKI-1 renal	GI50	> 100000 nM
CCCCC(CC)CN=C(N)NC(N)=NCCCCCCN=C(N)NC(N)=NCC(CC)CCCC (stereo not drawn)	CAKI-1 renal	GI50	2930 nM
CCN(CC)CC(C)Nc1ccc([N+](=O)[O-])c2sc3ccccc3c(=O)c12 (stereo not drawn)	CAKI-1 renal	GI50	657 nM
O=c1cc(-c2ccccc2)[nH]c2ccccc12	CAKI-1 renal	GI50	825 nM
COc1ccc(-c2c3c(N)nc(-c4ccncc4)nc3nc3c2c(C)nn3-c2ccccc2)cc1	CAKI-1 renal	GI50	> 100000 nM
COC(=O)[C@@]1(C)CC[C@]2(C)CC[C@]3(C)C4=CC=C5C(=CC(=O)C(O)=C5C)[C@]4(C)[C@@H](O)C[C@@]3(C)[C@@H]2C1	CAKI-1 renal	GI50	3940 nM
